Value source: paper PMC5395518

Tested on: HepG2 cells
Assay: MTT cytotoxicity assay, HepG2
Type: cell-based, human
Conditions: 72 h, mean ± SD (n = 3)
readout name: IC50
Phrase the answer as number then unit, nothing more needed.

Examples with answers:
[
  {
    "compound": "COc1cccc(/C=C/C(=O)OC2CCC3(C)C(CCC4(C)C3C(=O)C=C3C5CC(C)(C(=O)O)CCC5(C)CCC34C)C2(C)C)c1OC (stereo not drawn)",
    "IC50": "24.4 µM"
  },
  {
    "compound": "CC1(C)[C@@H](OC(=O)/C=C/c2ccccc2)CC[C@]2(C)[C@H]3C(=O)C=C4[C@@H]5C[C@@](C)(C(=O)O)CC[C@]5(C)CC[C@@]4(C)[C@]3(C)CC[C@@H]12",
    "IC50": "24.4 µM"
  },
  {
    "compound": "COc1ccccc1/C=C/C(=O)OC1CCC2(C)C(CCC3(C)C2C(=O)C=C2C4CC(C)(C(=O)O)CCC4(C)CCC23C)C1(C)C (stereo not drawn)",
    "IC50": "32 µM"
  }
]

Would you mind giving IC50 for every compound in the list below?
1. COc1cccc(CCC(=O)OC2CCC3(C)C(CCC4(C)C3C(=O)C=C3C5CC(C)(C(=O)O)CCC5(C)CCC34C)C2(C)C)c1OC (stereo not drawn)
2. COc1cc(CCC(=O)OC2CCC3(C)C(CCC4(C)C3C(=O)C=C3C5CC(C)(C(=O)O)CCC5(C)CCC34C)C2(C)C)cc(OC)c1OC (stereo not drawn)
3. COc1cccc(/C=C/C(=O)OC2CCC3(C)C(CCC4(C)C3C(=O)C=C3C5CC(C)(C(=O)O)CCC5(C)CCC34C)C2(C)C)c1 (stereo not drawn)

## Result
1. 33.1 µM
2. 22.4 µM
3. 12.7 µM
